- Tested on: NCI-H1876 complex spheroid growth, % test/control
- test details: Anticancer human tumor NCI-H1876 cell line growth inhibition [Asc];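 further: compound exposure lasted 7 days starting three days after seeding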
- condition summary: compound alone; run of 11/07/2022
experimental endpoint: IC50

molecule: CCN1C(C(=O)NC23CCC(C(=O)O)(CC2)CC3)C(c2cccc(Cl)c2F)C2(C(=O)Nc3cc(Cl)ccc32)C12CCCCC2 (configuration not stated)
test system: NCI-H1876 complex spheroid growth, % test/control
obs value: > 3 µM

Attention now turns to another entry.
*Q* Reported IC50, molecule Cc1c(S(C)(=O)=O)c(-c2cc(F)cc(N3CCN(c4ccc(NS(=O)(=O)c5ccc(NC(CCN6CCC(C(=O)OCCCP(=O)(O)O)CC6)CSc6ccccc6)c(S(=O)(=O)C(F)(F)F)c5)cc4)CC3)c2)c(-c2ccc(Cl)cc2)n1C(C)C (configuration not stated) : ____
*A* > 10 µM

----------
- Tested on: NCI-H1876 complex spheroid growth, % test/control
- test details: Anticancer human tumor NCI-H1876 cell line growth inhibition [Asc];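 further: compound exposure lasted 7 days starting three days after seeding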;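 on viability, T/C: 100% = DMSO vehicle control wells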
- condition summary: second compound 0.0316 µM; first compound 0.316 µM; stronger effect = lower value
experimental endpoint: viability, T/C (%)
The figure you give is taken to be in %; do not add the unit.

Use these answered entries as a reference point.
compound: O=C(c1cc(Cc2n[nH]c(=O)c3ccccc23)ccc1F)N1CCN(C(=O)C2CC2)CC1 + CNC(C)C(=O)NC1CN(S(=O)(=O)c2cccc(S(=O)(=O)N3CCC4CCC(C(=O)NC(c5ccccc5)c5ccccc5)N4C(=O)C(NC(=O)C(C)NC)C3)c2)CCC2CCC(C(=O)NC(c3ccccc3)c3ccccc3)N2C1=O
obs value: 92
--
compound: C#Cc1c(F)ccc2cc(O)cc(-c3ncc4c(N5CC6CCC(C5)N6)nc(OCC56CCCN5CC(F)C6)nc4c3F)c12 (stereo not drawn) + Cc1c(S(C)(=O)=O)c(-c2cc(F)cc(N3CCN(c4ccc(NS(=O)(=O)c5ccc(NC(CCN6CCC(C(=O)OCCCP(=O)(O)O)CC6)CSc6ccccc6)c(S(=O)(=O)C(F)(F)F)c5)cc4)CC3)c2)c(-c2ccc(Cl)cc2)n1C(C)C
obs value: 108

Attention now turns to another entry.
*Q* Reported viability, T/C, compound C=CC(=O)N1CCN(c2nc(=O)n(-c3c(C)ccnc3C(C)C)c3nc(-c4c(O)cccc4F)c(F)cc23)C(C)C1 (stereo not drawn) + CNC(C)C(=O)NC1CN(S(=O)(=O)c2cccc(S(=O)(=O)N3CCC4CCC(C(=O)NC(c5ccccc5)c5ccccc5)N4C(=O)C(NC(=O)C(C)NC)C3)c2)CCC2CCC(C(=O)NC(c3ccccc3)c3ccccc3)N2C1=O : ____
*A* 121

----------
- Tested on: NCI-H1876 complex spheroid growth, % test/control
- test details: Anticancer human tumor NCI-H1876 cell line growth inhibition [Asc];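 further: compound exposure lasted 7 days starting three days after seeding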;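 on viability, T/C: 100% = DMSO vehicle control wells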
- condition summary: second compound 1 µM; first compound 0.00949 µM; stronger effect = lower value
experimental endpoint: viability, T/C (%)
The figure you give is taken to be in %; do not add the unit.

*Q* Reported viability, T/C, molecule NC(=O)C(=Cn1cnc(-c2cc(C(F)(F)F)cc(C(F)(F)F)c2)n1)c1cncnc1 + CNC(C)C(=O)NC1CN(S(=O)(=O)c2cccc(S(=O)(=O)N3CCC4CCC(C(=O)NC(c5ccccc5)c5ccccc5)N4C(=O)C(NC(=O)C(C)NC)C3)c2)CCC2CCC(C(=O)NC(c3ccccc3)c3ccccc3)N2C1=O : ____
*A* 102

*Q* Reported viability, T/C, molecule Cc1nc(N2CCC3(CC2)COC(C)C3N)c(CO)nc1Sc1ccnc(N)c1Cl (centres undefined) + CNC(C)C(=O)NC1CN(S(=O)(=O)c2cccc(S(=O)(=O)N3CCC4CCC(C(=O)NC(c5ccccc5)c5ccccc5)N4C(=O)C(NC(=O)C(C)NC)C3)c2)CCC2CCC(C(=O)NC(c3ccccc3)c3ccccc3)N2C1=O : ____
*A* 94

*Q* Reported viability, T/C, molecule CCN1C(C(=O)NC23CCC(C(=O)O)(CC2)CC3)C(c2cccc(Cl)c2F)C2(C(=O)Nc3cc(Cl)ccc32)C12CCCCC2 (centres undefined) + Cc1c(S(C)(=O)=O)c(-c2cc(F)cc(N3CCN(c4ccc(NS(=O)(=O)c5ccc(NC(CCN6CCC(C(=O)OCCCP(=O)(O)O)CC6)CSc6ccccc6)c(S(=O)(=O)C(F)(F)F)c5)cc4)CC3)c2)c(-c2ccc(Cl)cc2)n1C(C)C : ____
*A* 95.2

*Q* Reported viability, T/C, molecule CCN1C(C(=O)NC23CCC(C(=O)O)(CC2)CC3)C(c2cccc(Cl)c2F)C2(C(=O)Nc3cc(Cl)ccc32)C12CCCCC2 (centres undefined) + CNC(C)C(=O)NC1CN(S(=O)(=O)c2cccc(S(=O)(=O)N3CCC4CCC(C(=O)NC(c5ccccc5)c5ccccc5)N4C(=O)C(NC(=O)C(C)NC)C3)c2)CCC2CCC(C(=O)NC(c3ccccc3)c3ccccc3)N2C1=O : ____
*A* 112
